Where do the numbers come from? From patent US4323568A.

# assayDetails: LD50 i.p. in mice, calculated by Litchfield-Wilcoxon method
# measurementParameters: mouse, in vivo, ip, read-out: ID50 (the source's name)
Counter-ions that a name gives are not always drawn.
hey, just use t if measured LD50 is less than 200 mg/kg, otherwise f

[[record]]
compound = "CN(C)CCCOc1ccccc1CCc1ccc(Cl)c(Cl)c1.Cl [Example 54]"
class = "f"

[[record]]
compound = "CN(C)CCCCOc1ccccc1CCc1ccccc1O [Example 38]"
class = "t"

[[record]]
compound = "NC(=O)C1CCN(CCCCOc2ccccc2CCc2ccccc2)CC1 [Example 24]"
class = "f"

[[record]]
compound = "CN(C)CCOc1ccccc1CCc1ccccc1 [Example 1, hydrochloride]"
class = "t"

[[record]]
compound = "COc1ccccc1CCc1ccccc1OCCCCN(C)C [Example 32]"
class = "f"

[[record]]
compound = "CCN(CC)CCCOc1ccccc1CCc1ccccc1 [Example 16, 2-(3-diethylaminopropoxy)bibenzyl]"
class = "t"

[[record]]
compound = "NC(=O)C1CCN(CCCCOc2ccccc2CCc2ccc(F)cc2)CC1 [Example 56]"
class = "f"

[[record]]
compound = "CN(C)CCCCOc1ccccc1CCc1ccc(F)cc1 [Example 55]"
class = "t"

